- targetEntity: human MC3R (Homo sapiens, UniProt P41968)
- Sequence (P41968 whole entry): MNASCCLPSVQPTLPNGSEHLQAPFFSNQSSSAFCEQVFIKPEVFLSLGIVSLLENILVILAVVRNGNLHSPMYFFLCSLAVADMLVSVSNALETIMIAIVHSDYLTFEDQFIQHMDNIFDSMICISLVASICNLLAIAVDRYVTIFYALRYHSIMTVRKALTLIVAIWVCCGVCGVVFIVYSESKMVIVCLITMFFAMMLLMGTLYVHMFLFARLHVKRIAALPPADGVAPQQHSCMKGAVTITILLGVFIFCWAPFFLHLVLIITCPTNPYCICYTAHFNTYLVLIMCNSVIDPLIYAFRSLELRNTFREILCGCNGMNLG
- assayProcedure: cAMP assay (LANCE) in T-Rex-293 cells expressing MC3R
- recordedConditions: cAMP assay; mean (± SEM) of at least three independent experiments; read-out: EC50 hMC3R cAMP
Reported EC50 by item:

compound	targetEntity	result
CN1C(=O)[C@H]2N[C@@H](c3ccc(cc3)C(=O)NCCCC[C@@H](C(N)=O)NC(=O)[C@H](Cc3ccccc3)NC(=O)[C@H](Cc3ccccc3)NC(=O)[C@H](CCCNC(=N)N)NC(=O)[C@@H]1Cc1ccccc1)[C@H]1C(=O)N(c3ccccc3)C(=O)[C@H]12 [N3-major*, [II-FRFFK ]]	human MC3R (Homo sapiens, UniProt P41968)	> 100 µM
CN1C(=O)[C@@H]2N[C@H](c3ccc(cc3)C(=O)NCCCC[C@@H](C(=O)N[C@@H](Cc3ccc(O)cc3)C(N)=O)NC(=O)[C@H](CC(N)=O)NC(=O)[C@@H](Cc3ccccc3)NC(=O)[C@@H](Cc3ccccc3)NC(=O)[C@H](CCCNC(=N)N)NC(=O)[C@@H]1Cc1ccccc1)[C@@H]1C(=O)N(c3ccccc3)C(=O)[C@@H]12 [K1-major, [II-FRffNK ]Y]	human MC3R (Homo sapiens, UniProt P41968)	> 100 µM

--- query ---
Exercise: For the compound C[C@@H]1NC(=O)[C@H](CC(N)=O)NC(=O)[C@H](Cc2ccccc2)NC(=O)[C@H](Cc2ccccc2)NC(=O)[C@H](CCCNC(=N)N)NC(=O)[C@H](Cc2ccccc2)N(C)C(=O)[C@H]2N[C@@H](c3ccc(cc3)C(=O)NCCCC[C@@H](C(=O)NCC(N)=O)NC(=O)[C@H](Cc3ccccc3)NC1=O)[C@H]1C(=O)N(C)C(=O)[C@H]12 [B2-minor, [ I-FRFFNAFK ]G] , what EC50 is on record?
Solution: > 100 µM

====

- targetEntity: human MC4R (Homo sapiens)
- Sequence (P32245 whole entry): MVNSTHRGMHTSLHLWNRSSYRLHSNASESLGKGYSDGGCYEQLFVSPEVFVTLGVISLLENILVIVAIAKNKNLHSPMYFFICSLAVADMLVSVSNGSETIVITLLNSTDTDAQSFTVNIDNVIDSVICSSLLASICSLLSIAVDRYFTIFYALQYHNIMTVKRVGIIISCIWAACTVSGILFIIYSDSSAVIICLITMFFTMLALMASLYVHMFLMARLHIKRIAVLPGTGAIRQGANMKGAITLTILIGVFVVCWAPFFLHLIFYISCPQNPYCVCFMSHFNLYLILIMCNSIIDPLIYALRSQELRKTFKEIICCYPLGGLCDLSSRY
// reported IC50 for each item listed

molecule	quantityMeasured	result
CN1C(=O)[C@@H]2N[C@H](c3ccc(cc3)C(=O)NCCCC[C@@H](C(=O)N[C@@H](Cc3ccc(O)cc3)C(N)=O)NC(=O)[C@H](CC(N)=O)NC(=O)[C@@H](Cc3ccccc3)NC(=O)[C@@H](Cc3ccccc3)NC(=O)[C@H](CCCNC(=N)N)NC(=O)[C@@H]1Cc1ccccc1)[C@@H]1C(=O)N(c3ccccc3)C(=O)[C@@H]12 [K1-major, [II-FRffNK ]Y]	IC50	54 µM
CN1C(=O)[C@@H]2N[C@H](c3ccc(cc3)C(=O)NCCCC[C@@H](C(=O)NCC(N)=O)NC(=O)[C@H](CC(N)=O)NC(=O)[C@@H](Cc3ccccc3)NC(=O)[C@@H](Cc3ccccc3)NC(=O)[C@H](CCCNC(=N)N)NC(=O)[C@@H]1Cc1ccccc1)[C@@H]1C(=O)N(c3ccccc3)C(=O)[C@@H]12 [K3-major, [II-FRffNK ]G]	IC50	> 10 µM

Exercise: IC50 lookup needed for CN1C(=O)[C@H]2N[C@@H](c3ccc(cc3)C(=O)NCCCC[C@@H](C(=O)NCC(N)=O)NC(=O)[C@H](CC(N)=O)NC(=O)[C@@H](Cc3ccccc3)NC(=O)[C@@H](Cc3ccccc3)NC(=O)[C@H](CCCNC(=N)N)NC(=O)[C@@H]1Cc1ccccc1)[C@H]1C(=O)N(c3ccccc3)C(=O)[C@H]12 [K3-minor, [II-FRffNK ]G] , thanks.
Solution: > 10 µM

====

- targetEntity: human MC3R (Homo sapiens, UniProt P41968)
- Construct: expressed in transfected cells
- assayProcedure: cAMP assay (LANCE) in T-Rex-293 cells expressing MC3R
- Assay type: cell-based
- recordedConditions: cAMP assay; mean (± SEM) of at least three independent experiments; read-out: EC50 hMC3R cAMP
Form field: EC50 (one value per entry).

The cases that follow already have their EC50 on record.
compound	targetEntity	result
CN1C(=O)[C@@H]2[C@H](C1=O)[C@H]1N[C@@H]2c2ccc(cc2)C(=O)NCCCC[C@@H](C(=O)N[C@@H](Cc2ccc(O)cc2)C(N)=O)NC(=O)[C@H](CC(N)=O)NC(=O)[C@H](Cc2ccccc2)NC(=O)[C@H](Cc2ccccc2)NC(=O)[C@H](CCCNC(=N)N)NC(=O)[C@H](Cc2ccccc2)N(C)C1=O [J1-major, [ I-FRFFNK ]Y]	human MC3R (Homo sapiens, UniProt P41968)	> 100 µM
CN1C(=O)[C@@H]2N[C@H](c3ccc(cc3)C(=O)NCCCC[C@@H](C(=O)NCC(N)=O)NC(=O)[C@H](CC(N)=O)NC(=O)[C@H](Cc3ccccc3)NC(=O)[C@H](Cc3ccccc3)NC(=O)[C@H](CCCNC(=N)N)NC(=O)[C@@H]1Cc1ccccc1)[C@@H]1C(=O)N(c3ccccc3)C(=O)[C@@H]12 [J3-minor*, [ II-FRFFNK ]G]	human MC3R (Homo sapiens, UniProt P41968)	> 100 µM

Now turn to the next compound.
Exercise: Requested read-out EC50, target or system human MC3R (Homo sapiens, UniProt P41968), entry CN1C(=O)[C@@H]2[C@H](C1=O)[C@H]1N[C@@H]2C(=O)N(C)[C@@H](Cc2ccccc2)C(=O)N[C@@H](CCCNC(=N)N)C(=O)N[C@H](Cc2ccccc2)C(=O)N[C@H](Cc2ccccc2)C(=O)N[C@H](C(=O)N[C@@H](Cc2ccc(O)cc2)C(N)=O)CCCCNC(=O)c2ccc1cc2 [O1-minor, [I-FRffK ]Y]
Solution: > 10 µM

====

Listing: EC50 of selected compounds
- targetEntity: human MC3R (Homo sapiens, UniProt P41968)
- assayProcedure: cAMP assay (LANCE) in T-Rex-293 cells expressing MC3R
- recordedConditions: cAMP assay; mean (± SEM) of at least three independent experiments; read-out: EC50 hMC3R cAMP

compound	targetEntity	EC50
CN1C(=O)[C@H]2N[C@@H](c3ccc(cc3)C(=O)NCCCC[C@@H](C(=O)N[C@@H](Cc3ccc(O)cc3)C(N)=O)NC(=O)[C@H](CC(N)=O)NC(=O)[C@H](Cc3ccccc3)NC(=O)[C@H](Cc3ccccc3)NC(=O)[C@H](CCCNC(=N)N)NC(=O)[C@@H]1Cc1ccccc1)[C@H]1C(=O)N(c3ccccc3)C(=O)[C@H]12 [J2-major, [ II-FRFFNK ]Y]	human MC3R (Homo sapiens, UniProt P41968)	> 100 µM

Exercise: State the recorded EC50 for this entry: CN1C(=O)[C@H]2N[C@@H](c3ccc(cc3)C(=O)NCCCC[C@@H](C(=O)NCC(N)=O)NC(=O)[C@H](CC(N)=O)NC(=O)[C@H](Cc3ccccc3)NC(=O)[C@H](Cc3ccccc3)NC(=O)[C@H](CCCNC(=N)N)NC(=O)[C@@H]1Cc1ccccc1)[C@H]1C(=O)N(c3ccccc3)C(=O)[C@H]12 [J3-major*, [ II-FRFFNK ]G]
Solution: > 100 µM

Exercise: What measured EC50 goes with C[C@@H]1NC(=O)[C@H](CC(N)=O)NC(=O)[C@@H](Cc2ccccc2)NC(=O)[C@@H](Cc2ccccc2)NC(=O)[C@H](CCCNC(=N)N)NC(=O)[C@H](Cc2ccccc2)N(C)C(=O)[C@@H]2N[C@H](c3ccc(cc3)C(=O)NCCCC[C@@H](C(=O)N[C@@H](Cc3ccc(O)cc3)C(N)=O)NC1=O)[C@@H]1C(=O)N(C)C(=O)[C@@H]12 [G1-major, [I-FRffNAK ]Y] ?
Solution: > 10 µM
